Where do the numbers come from? From ChEMBL document CHEMBL1152380.

Entries and their measured MIC follow.
System: Staphylococcus epidermidis
Test: Antibacterial activity against Staphylococcus epidermidis ATCC 12228 by microbroth dilution technique
Assay type: functional
Conditions: Staphylococcus epidermidis, ATCC 12228; read-out: MIC
Express your answer in µg/mL, writing the number without its unit.

Consider the worked cases shown below.
C[C@H](O)[C@@H]1C[C@@H](O)CN1c1nc2c(cc1F)c(=O)c(C(=O)O)cn2C1CC1	32
CC(C)(C)OC(=O)N1CC2CC1CN2c1nc2c(cc1F)c(=O)c(C(=O)O)cn2C1CC1 (centres undefined)	4
O=C(O)c1cn(C2CC2)c2cc(N3CCNCC3)c(F)cc2c1=O [CIPROFLOXACIN]	0.5

Attention now turns to another entry.
So what does the record say about MIC for COC(=O)[C@@H]1C[C@@H](n2cc(CO)nn2)CN1c1nc2c(cc1F)c(=O)c(C(=O)O)cn2C1CC1 ?
8

* * *

Entries and their measured log10 of MIC follow.
Test system: Staphylococcus epidermidis
Assay: Antibacterial activity against Staphylococcus epidermidis ATCC 12228 by microbroth dilution technique
Format: functional
Conditions: Staphylococcus epidermidis, ATCC 12228; read-out: MIC
Please keep in mind that the values are log10 of MIC expressed in µg/mL.

Consider the worked cases shown below.
O=C(O)c1cn(C2CC2)c2nc(N3CCC[C@H]3CO)c(F)cc2c1=O	0.90
O=C(O)c1cn(C2CC2)c2nc(N3CC4CC3CS4(=O)=O)c(F)cc2c1=O (stereo not given)	-0.30
COC(=O)[C@@H]1C[C@@H](O)CN1c1nc2c(cc1F)c(=O)c(C(=O)O)cn2C1CC1	1.20
O=C(O)c1cn(C2CC2)c2nc(N3CC4CC3CS4)c(F)cc2c1=O (stereo not given)	-0.90

So what does the record say about log10 of MIC for O=C(O)c1cn(C2CC2)c2nc(N3CCC[C@H]3Cn3cc(CO)nn3)c(F)cc2c1=O ?
1.51

* * *

Test system: Pseudomonas aeruginosa
Assay: Antibacterial activity against multidrug-resistant Pseudomonas aeruginosa clinical isolates by microbroth dilution technique
Type: functional
Conditions: Pseudomonas aeruginosa; read-out: MIC
observation type: MIC (µg/mL)
Express your answer in µg/mL, writing the number without its unit.

Consider the worked cases shown below.
COC(=O)[C@@H]1C[C@@H](O)CN1c1nc2c(cc1F)c(=O)c(C(=O)O)cn2C1CC1	32
O=C(O)c1cn(C2CC2)c2nc(N3C[C@H](O)C[C@H]3CO)c(F)cc2c1=O	32

So what does the record say about MIC for O=C(O)c1cn(C2CC2)c2nc(N3CCC[C@H]3CO)c(F)cc2c1=O ?
32

* * *

Tested on: Escherichia coli
Test: Antibacterial activity against Escherichia coli ATCC 25922 by microbroth dilution technique
Format: functional
Conditions: Escherichia coli, ATCC 25922; read-out: MIC
Entries and their measured MIC follow.
Express your answer in µg/mL, writing the number without its unit.

Consider the worked cases shown below.
O=C(O)c1cn(C2CC2)c2nc(N3CC4CC3CS4(=O)=O)c(F)cc2c1=O (centres undefined)	0.125
C[C@H](O)[C@@H]1C[C@@H](O)CN1c1nc2c(cc1F)c(=O)c(C(=O)O)cn2C1CC1	8
O=C(O)c1cn(C2CC2)c2nc(N3CC4CC3CS4)c(F)cc2c1=O (centres undefined)	0.125
O=C(O)c1cn(C2CC2)c2nc(N3C[C@@H](O)[C@H](O)C3)c(F)cc2c1=O	4
COC(=O)[C@@H]1C[C@@H](n2cc(CO)nn2)CN1c1nc2c(cc1F)c(=O)c(C(=O)O)cn2C1CC1	4

So what does the record say about MIC for O=C(O)c1cn(C2CC2)c2nc(N3CCC[C@H]3Cn3cc(CO)nn3)c(F)cc2c1=O ?
32

So what does the record say about MIC for O=C(O)c1cn(C2CC2)c2nc(N3C[C@H](O)C[C@H]3CO)c(F)cc2c1=O ?
32

So what does the record say about MIC for CC(C)(C)OC(=O)N1CC2CC1CN2c1nc2c(cc1F)c(=O)c(C(=O)O)cn2C1CC1 (centres undefined) ?
4

* * *

Test system: Escherichia coli
Assay: Antibacterial activity against Escherichia coli ATCC 25922 by microbroth dilution technique
Format: functional
Details: Escherichia coli, ATCC 25922; read-out: MIC
Entries and their measured MIC follow.

O=C(O)c1cn(C2CC2)c2nc(N3CC4CC3C[S+]4[O-])c(F)cc2c1=O (stereo in doubt; 6.28)	1 µg/mL

So what does the record say about MIC for COC(=O)[C@@H]1C[C@@H](O)CN1c1nc2c(cc1F)c(=O)c(C(=O)O)cn2C1CC1 ?
8 µg/mL

So what does the record say about MIC for C[C@@H](O)[C@@H]1C[C@@H](O)CN1c1nc2c(cc1F)c(=O)c(C(=O)O)cn2C1CC1 ?
16 µg/mL

So what does the record say about MIC for COC(=O)[C@@H]1C[C@@H](n2cc(Cc3ccccc3)nn2)CN1c1nc2c(cc1F)c(=O)c(C(=O)O)cn2C1CC1 ?
32 µg/mL

So what does the record say about MIC for O=C(O)c1cn(C2CC2)c2nc(N3CCC[C@H]3CO)c(F)cc2c1=O ?
2 µg/mL
